These measurements were taken from patent US9926281B2.

Target: human MMP13 (Homo sapiens (Human), UniProt P45452)
Conditions: read-out: hMMP-13 potency IC50
readout: IC50

O=C1NC(=O)C(CCC(=O)N2CCN(c3ccc(F)c(Cl)c3)CC2)(c2cccnc2)N1 (stereo not drawn)
1.68 µM
CC(CC1(C)NC(=O)NC1=O)C(=O)N1CCN(c2cc(Cl)cc(Cl)c2)CC1 (stereo not drawn)
> 4 µM
C[C@H]1CN(C(=O)CCC2(C)NC(=O)NC2=O)CCN1c1ccc(Cl)c(Cl)c1 (stereo partly drawn)
> 20 µM
Cc1cc(Cl)ccc1N1CCN(C(=O)CCC2(C)NC(=O)NC2=O)CC1 (stereo not drawn)
> 20 µM

Q: Query (compound): COCC1(CC(C)C(=O)N2CCN(c3cc(F)cc(F)c3)[C@@H](C)C2)NC(=O)NC1=O (stereo partly drawn) ; field requested: IC50
A: 3.94 µM

Q: Query (compound): Cc1ccc(Cl)cc1N1CCN(C(=O)CCC2(C3CC3)NC(=O)NC2=O)CC1 (stereo not drawn) ; field requested: IC50
A: > 20 µM

Q: Query (compound): O=C1NC(=O)C(CCC(=O)N2CCN(c3cccc(F)c3)CC2)(C2CC2)N1 (stereo not drawn) ; field requested: IC50
A: > 4 µM

Q: Query (compound): CC(C)C1(CCC(=O)N2CCN(c3cccc(Cl)c3)CC2)NC(=O)NC1=O (stereo not drawn) ; field requested: IC50
A: > 20 µM

Q: Query (compound): C[C@H]1CN(C(=O)CCC2(C3CC3)NC(=O)NC2=O)CCN1c1cc(F)cc(F)c1 (stereo partly drawn) ; field requested: IC50
A: > 20 µM
